- tgt: hFcγRIIIa-158V-streptavidin-His (human, UniProt P08637 17-208)
- Sequence (P08637 17-208 F176V): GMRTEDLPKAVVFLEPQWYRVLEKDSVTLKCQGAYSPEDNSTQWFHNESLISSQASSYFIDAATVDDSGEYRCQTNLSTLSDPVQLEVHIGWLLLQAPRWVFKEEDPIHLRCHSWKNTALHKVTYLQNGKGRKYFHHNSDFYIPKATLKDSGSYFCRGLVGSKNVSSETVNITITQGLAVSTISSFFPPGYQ
- method.notes: BLI
assay.metric: Kd (nM)

{"columns": ["binder", "unit.label", "reported"],
 "data": [
  ["Trastuzumab-MFc5 (antibody) Fc: DKTHTCPPCPAPELLGGPDVFLFPPKPMDTLMISRTPEVTCVVVDVSLEDPEVKFNWYVDGVEVHNAKTKPREEQYNSTYRVVSVLTVEHMDWLNGKEYKCKVSNKALPVPEEKTISKAKGQPREPQVYTLPPSRDELTKNQVSLTCLVKGFYPSDIAVEWESNGQPENNYKTTPPVLDSDGSFFLYSKLTVDKSRWQQGNVFSCSVLHEALHNHYTQKSLSLSPGK", "nM", 85]
]}
